Data provenance is ChEMBL document CHEMBL5241103.

- system_tested: Bromodomain-containing protein 2 (Homo sapiens)
- Sequence (P25440 whole entry): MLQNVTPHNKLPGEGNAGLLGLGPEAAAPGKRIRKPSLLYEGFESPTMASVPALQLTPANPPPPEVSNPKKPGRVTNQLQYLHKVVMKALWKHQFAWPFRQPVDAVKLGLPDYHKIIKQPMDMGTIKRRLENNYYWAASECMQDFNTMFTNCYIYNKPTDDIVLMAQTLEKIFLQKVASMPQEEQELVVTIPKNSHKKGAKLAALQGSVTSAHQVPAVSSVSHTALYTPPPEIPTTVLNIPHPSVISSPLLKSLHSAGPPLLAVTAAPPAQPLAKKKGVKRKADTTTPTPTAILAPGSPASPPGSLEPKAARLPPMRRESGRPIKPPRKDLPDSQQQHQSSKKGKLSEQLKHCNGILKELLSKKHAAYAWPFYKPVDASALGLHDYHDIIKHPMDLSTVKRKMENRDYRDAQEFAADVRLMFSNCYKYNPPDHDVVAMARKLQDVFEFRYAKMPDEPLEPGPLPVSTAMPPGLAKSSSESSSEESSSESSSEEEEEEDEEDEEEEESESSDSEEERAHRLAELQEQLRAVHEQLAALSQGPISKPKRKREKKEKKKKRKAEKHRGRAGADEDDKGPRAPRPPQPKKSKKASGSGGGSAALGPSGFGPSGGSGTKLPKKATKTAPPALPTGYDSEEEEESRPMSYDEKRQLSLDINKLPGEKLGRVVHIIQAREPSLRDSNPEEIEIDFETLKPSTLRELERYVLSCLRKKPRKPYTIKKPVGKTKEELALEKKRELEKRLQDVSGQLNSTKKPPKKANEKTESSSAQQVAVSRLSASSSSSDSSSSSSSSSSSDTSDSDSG
- assay_name: Binding affinity to BDR2- BD2 (unknown origin) by TR-FRET assay
pKd: −log10 of the molar value.
measurement_kind: pKd

1) CC(=O)N1c2ccc(-c3cc[nH]n3)cc2[C@H](Nc2ccc(C#N)cc2)C[C@@H]1C 8.22
2) COC(=O)c1ccc(N[C@@H]2C[C@H](C)N(C(C)=O)c3ccc(-c4cccc(NC(C)=O)c4)cc32)cc1 7.85

---

- system_tested: Mitogen-activated protein kinase 14 (Homo sapiens)
- Sequence (Q16539 whole entry): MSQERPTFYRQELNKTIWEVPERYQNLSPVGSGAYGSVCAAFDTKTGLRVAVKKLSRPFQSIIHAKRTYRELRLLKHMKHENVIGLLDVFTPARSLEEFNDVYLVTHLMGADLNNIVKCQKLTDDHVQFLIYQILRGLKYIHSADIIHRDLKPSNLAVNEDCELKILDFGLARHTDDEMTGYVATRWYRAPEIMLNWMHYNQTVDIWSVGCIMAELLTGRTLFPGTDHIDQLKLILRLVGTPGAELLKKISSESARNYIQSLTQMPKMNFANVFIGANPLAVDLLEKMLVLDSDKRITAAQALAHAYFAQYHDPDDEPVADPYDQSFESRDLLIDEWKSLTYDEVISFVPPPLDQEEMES
measurement_kind: Kd (nM)

1. Cc1cc(C)cc(Oc2nccc(-c3c(-c4ccc(C(F)(F)F)cc4)ncn3C3CCN(CCN)CC3)n2)c1 1900

---

- assay_name: Inhibition of BRD BD1 (unknown origin) by alpha screen assay
- Parameters: species or system Homo sapiens
pIC50: −log10 of the molar value.
measurement_kind: pIC50

1. COc1cc(OC)c2c(=O)[nH]c(-c3cc(C)c(OCCN4CCCC4)c(C)c3)nc2c1 5.94

---

- system_tested: Bromodomain-containing protein 4 (Homo sapiens, UniProt O60885)
- assay_name: Binding affinity to human BRD4 BD2 assessed as inhibition constant incubated for 1 hr by competitive binding assay
measurement_kind: Ki (nM)

1) COc1ccc(NC(=O)c2ccc(NC3=C(C)C(=O)CC3)c(Cl)c2)cc1 718
